What cell viability was measured for each of the following?
- Tested on: OCI-AML2;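 further: after 48 h exposure read by CellTiter-Glo luminescence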
- assay.procedure: cell viability relative to vehicle control; higher = less cytotoxic
- test.conditions: 10 µM; SRSF2 genotype: P95H/wt

Inquiry: # query: cell viability of entry `COc1ccc2c3c1O[C@H]1C[C@@H](O)C=C[C@@]31CCN(C)C2`
Reply text: 109%

Inquiry: // lookup cell viability for `O=C1Nc2ccccc2C1=O`
Reply text: 106%

Inquiry: Find the recorded cell viability belonging to O=C(O)C(O)Cc1ccc(O)c(O)c1 (stereo not given) [Sodium Danshensu] and report it.
Reply text: 93.7%

Inquiry: Query: cell viability; subject: `Cc1nc(Nc2ncc(C(=O)Nc3cc(NC(=O)c4cccc(C(F)(F)F)c4)ccc3C)s2)cc(N2CCN(CCO)CC2)n1`
Reply text: 55.5%

Inquiry: Item under review: C[C@H]1COc2c(N3CCN(C)CC3)c(F)cc3c(=O)c(C(=O)O)cn1c23 [Levofloxacin hydrate] . Reported cell viability?
Reply text: 93.3%
